Test system: S. mansoni (Puerto Rican) worm pairs
methodNotes: Worm pairing of adult worm pairs (Puerto Rican strain)
Assay type: cell-based, Schistosoma mansoni
conditionInfo: 10 μM, 24 h; % of DMSO control; SD in brackets
Below: a set of entries, each annotated with reported % worm pairing.
measuredQuantity: % worm pairing

| moleculeSmiles | testedSystem | assayValue |
| --- | --- | --- |
| O=c1nc2oc3ccc4ccccc4c3cc-2c(=O)[nH]1 | S. mansoni (Puerto Rican) worm pairs | 100 (0) % |
| O=c1nc2oc3ccc4ccccc4c3cc-2c(=O)n1C1CCCCC1 | S. mansoni (Puerto Rican) worm pairs | 100 (0) % |
| CCCn1c(=O)nc2oc3ccc4ccccc4c3cc-2c1=O | S. mansoni (Puerto Rican) worm pairs | 90 (14) % |
| C=CCn1c(=O)nc2oc3ccc4ccccc4c3cc-2c1=O | S. mansoni (Puerto Rican) worm pairs | 90 (14) % |
| O=c1nc2oc3ccc4ccccc4c3cc-2c(=O)n1Cc1ccccc1 | S. mansoni (Puerto Rican) worm pairs | 80 (20) % |

Where do the numbers come from? From paper PMC12624727.
